Target: T1, RBFOX1 RRM (Homo sapiens, UniProt Q9NWB1 109-208)
T1 sequence: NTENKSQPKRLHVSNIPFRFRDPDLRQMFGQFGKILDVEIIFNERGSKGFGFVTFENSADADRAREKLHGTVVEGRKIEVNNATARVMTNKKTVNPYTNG
Test: EMSA; HiTS-Eq, 1 nM pool, 10 min; buffer printed only for the single-RNA assays: 10 mM Tris pH 7.5, 150 mM NaCl, 3.4 mM EDTA, 0.001% NP-40, 30 C
Conditions: tags: His6 N-terminal (pET28a); label: 5' 32P
Whole data set: some 16,000 sequences, median “ka relative to ugcaugu” near 0.0091, cut for the highest 2% near 0.032. The full list was thinned out, with the highest values kept by preference.
observed-property: binding signal

Recorded result, CAUGUCC (DNA:RNA) RNA: GGGAGACCGGAAUUCAGAUUGUCCCAUGUCCUUAAAUCCCGUCGUAGCCACCA DNA 1: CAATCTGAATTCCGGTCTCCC DNA 2: TGGTGGCTACGACGGGATT , binding signal: 0.00562 KA relative to UGCAUGU

Recorded result, ACCGGGC (DNA:RNA) RNA: GGGAGACCGGAAUUCAGAUUGUCCACCGGGCUUAAAUCCCGUCGUAGCCACCA DNA 1: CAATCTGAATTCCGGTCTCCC DNA 2: TGGTGGCTACGACGGGATT , binding signal: 0.0122 KA relative to UGCAUGU

Recorded result, GGGCUGU (DNA:RNA) RNA: GGGAGACCGGAAUUCAGAUUGUCCGGGCUGUUUAAAUCCCGUCGUAGCCACCA DNA 1: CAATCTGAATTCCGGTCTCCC DNA 2: TGGTGGCTACGACGGGATT , binding signal: 0.0234 KA relative to UGCAUGU

Recorded result, GGGCUCU (DNA:RNA) RNA: GGGAGACCGGAAUUCAGAUUGUCCGGGCUCUUUAAAUCCCGUCGUAGCCACCA DNA 1: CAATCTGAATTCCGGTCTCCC DNA 2: TGGTGGCTACGACGGGATT , binding signal: 0.0214 KA relative to UGCAUGU

Recorded result, CGGGCUG (DNA:RNA) RNA: GGGAGACCGGAAUUCAGAUUGUCCCGGGCUGUUAAAUCCCGUCGUAGCCACCA DNA 1: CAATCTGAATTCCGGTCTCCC DNA 2: TGGTGGCTACGACGGGATT , binding signal: 0.0324 KA relative to UGCAUGU

Recorded result, GGGGCUC (DNA:RNA) RNA: GGGAGACCGGAAUUCAGAUUGUCCGGGGCUCUUAAAUCCCGUCGUAGCCACCA DNA 1: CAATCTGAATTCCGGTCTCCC DNA 2: TGGTGGCTACGACGGGATT , binding signal: 0.0466 KA relative to UGCAUGU

Recorded result, UCUCAAG (DNA:RNA) RNA: GGGAGACCGGAAUUCAGAUUGUCCUCUCAAGUUAAAUCCCGUCGUAGCCACCA DNA 1: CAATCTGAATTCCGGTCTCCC DNA 2: TGGTGGCTACGACGGGATT , binding signal: 0.00583 KA relative to UGCAUGU

Recorded result, AAAUAUU (DNA:RNA) RNA: GGGAGACCGGAAUUCAGAUUGUCCAAAUAUUUUAAAUCCCGUCGUAGCCACCA DNA 1: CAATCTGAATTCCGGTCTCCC DNA 2: TGGTGGCTACGACGGGATT , binding signal: 0.00092 KA relative to UGCAUGU

Recorded result, AAAGAAG (DNA:RNA) RNA: GGGAGACCGGAAUUCAGAUUGUCCAAAGAAGUUAAAUCCCGUCGUAGCCACCA DNA 1: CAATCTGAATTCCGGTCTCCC DNA 2: TGGTGGCTACGACGGGATT , binding signal: 0.00539 KA relative to UGCAUGU
